Source: patent US5972599

Target: IFN-gamma (Homo sapiens, UniProt P01579 P01579:24-161)
Sequence (P01579 24-161, one chain of several): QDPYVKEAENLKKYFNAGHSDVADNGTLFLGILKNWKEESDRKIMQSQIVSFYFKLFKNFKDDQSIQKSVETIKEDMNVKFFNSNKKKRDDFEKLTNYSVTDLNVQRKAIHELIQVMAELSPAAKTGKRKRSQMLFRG
Test: filter; biphasic 3.2/314 nM
Settings: tags: Genzyme (Cambridge MA); Upstate Biotechnology for early SELEX rounds; chain copies: 2 inferred
PROPERTY MEASURED: Kd (nM)
Give the number; nM is assumed, so skip it.

Record request: Kd value, item IFN-gamma 2'F-6 (ssRNA, 2'-F all C and U) RNA: GGGAGGACGAUGCGGUGGAGUUUUAAUCUUACUUCCUACUCUUGCUCCACUGGGUCAGACGACUCGCCCGA
3.2
